The reported measurements were obtained from patent US20240132578A1.

biological target: HIV-1 Env of isolate MGRM-C-022 (subtype C) (HIV-1); experiment: cell-based or functional assay
MEASURED_ATTRIBUTE: IC50 (µg/mL), pseudovirus neutralization

>>> value_measured("PGT-125 (antibody, V domains shown) VH: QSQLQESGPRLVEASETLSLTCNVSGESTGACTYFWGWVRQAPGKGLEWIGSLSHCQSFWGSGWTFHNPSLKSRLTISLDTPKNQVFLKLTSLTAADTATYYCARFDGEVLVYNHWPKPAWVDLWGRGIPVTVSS VL: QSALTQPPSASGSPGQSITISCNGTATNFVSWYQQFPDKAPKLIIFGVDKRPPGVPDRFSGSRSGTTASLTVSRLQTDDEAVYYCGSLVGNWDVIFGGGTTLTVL")
1.23
>>> value_measured("PGT-127 (antibody, V domains shown) VH: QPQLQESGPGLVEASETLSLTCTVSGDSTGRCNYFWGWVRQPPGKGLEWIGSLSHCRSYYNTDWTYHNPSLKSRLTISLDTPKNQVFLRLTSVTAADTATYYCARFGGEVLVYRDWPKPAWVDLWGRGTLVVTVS VL: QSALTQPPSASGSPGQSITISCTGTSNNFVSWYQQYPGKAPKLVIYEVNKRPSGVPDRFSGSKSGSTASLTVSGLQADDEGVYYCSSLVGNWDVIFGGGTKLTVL")
0.41
>>> value_measured("PGT-126 (antibody, V domains shown) VH: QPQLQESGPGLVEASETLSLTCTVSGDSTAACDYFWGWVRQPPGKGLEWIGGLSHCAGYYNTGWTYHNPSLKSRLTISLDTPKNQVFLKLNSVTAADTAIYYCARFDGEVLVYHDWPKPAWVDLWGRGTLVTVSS VL: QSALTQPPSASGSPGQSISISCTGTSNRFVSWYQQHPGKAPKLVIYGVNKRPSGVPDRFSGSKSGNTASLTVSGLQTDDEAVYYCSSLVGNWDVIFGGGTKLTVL")
0.96
